# reported pIC50; entries follow
- system_under_test: JAK2 (Homo sapiens)
- Construct: recombinant purified GST-tagged catalytic domain for each enzyme
- assay_procedure: Jak Biochemical HTRF Assay (JAK2)
- condition_set: recombinant purified GST-tagged catalytic domain, [ATP] 8.5 μM, values given as range classes
pIC50: −log10 of the molar value.

Answered cases to consult:
> print(dat)
                                   compound    system.under.test        result
1  CC(C)[C@@H](Nc1cnnc(-c2c[nH]c3ncc(C#N)cc23)n1)C(=O)NCC(F)(F)F  JAK2 (Homo sapiens)  6.30 to 8.00
2  CC1c2ncc(C(F)(F)F)n2CCN1c1cnnc(-c2c[nH]c3ncc(C(N)=O)cc23)n1 (stereo not shown)  JAK2 (Homo sapiens)  6.30 to 8.00
3  CC(CO)NC(=O)c1cnc2[nH]cc(-c3cncc(N[C@@H](C(=O)NCC(F)(F)F)C(C)C)c3)c2c1 (stereo partly shown)  JAK2 (Homo sapiens)        ≥ 8.00
4  COCC(C)NC(=O)c1cnc2[nH]cc(-c3cncc(N[C@@H](C(=O)NCC(F)(F)F)C(C)C)c3)c2c1 (stereo partly shown)  JAK2 (Homo sapiens)  6.30 to 8.00
5  COc1cnc2[nH]cc(-c3cncc(N[C@H](C)C(=O)NCC(F)(F)F)c3)c2c1  JAK2 (Homo sapiens)  6.30 to 8.00

pIC50 of CC(C)[C@H](Nc1cncc(-c2c[nH]c3ncc(OCCN4CCCC4=O)cc23)c1)C(=O)NCC(F)(F)F , assay on JAK2 (Homo sapiens), is 6.30 to 8.00

pIC50 of CC(C)C(Nc1cncc(-c2c[nH]c3ncc(-c4cnn(C)c4)cc23)c1)C(=O)NCC(F)(F)F (racemic) , assay on JAK2 (Homo sapiens), is ≥ 8.00

====

# reported pIC50; entries follow
- system_under_test: JAK2 (Homo sapiens)
- Construct: recombinant purified GST-tagged catalytic domain for each enzyme
- assay_procedure: Jak Biochemical HTRF Assay (JAK2)
- condition_set: recombinant purified GST-tagged catalytic domain, [ATP] 8.5 μM, values given as range classes
pIC50: −log10 of the molar value.

> print(dat)
                                   molecule        result
1  CC(C)[C@H](Nc1cncc(-c2c[nH]c3ncc(OCc4cccnc4)cc23)c1)C(=O)NCC(F)(F)F  6.30 to 8.00
2  Clc1cnc2[nH]cc(-c3nncc(N4CCCC4c4nccs4)n3)c2c1 (stereo not shown)  6.30 to 8.00
3  CC(C)[C@@H](Nc1cncc(-c2c[nH]c3ncc(Cl)cc23)c1)C(=O)NCC(F)(F)F [Example 1-51]        ≥ 8.00

# next molecule below
Reported pIC50 of CC(C)[C@H](Nc1cncc(-c2c[nH]c3ncc(OC4Cc5ccccc5C4)cc23)c1)C(=O)NCC(F)(F)F : 6.30 to 8.00

====

- system_under_test: JAK2 (Homo sapiens)
- Construct: recombinant purified GST-tagged catalytic domain for each enzyme; purchased Invitrogen M4290
- assay_procedure: Jak Biochemical HTRF Assay (JAK2)
- condition_set: recombinant purified GST-tagged catalytic domain, [ATP] 8.5 μM, values given as range classes
pIC50: −log10 of the molar value.
# reported pIC50; entries follow

Answered cases to consult:
> print(dat)
                              sample.smiles  readout        result
1  CC(C)[C@H](Nc1cncc(-c2c[nH]c3ncc(-c4cnn(C)c4)cc23)c1)C(=O)NCC(F)(F)F    pIC50  6.30 to 8.00
2  COCC(=O)Nc1cnc2[nH]cc(-c3cncc(N[C@H](C(=O)NCC(F)(F)F)C(C)C)c3)c2c1    pIC50  6.30 to 8.00
3  CC(C)NC(=O)c1cnc2[nH]cc(-c3cncc(N[C@@H](C(=O)NCC(F)(F)F)C(C)C)c3)c2c1    pIC50        ≥ 8.00

pIC50 of CC(C)[C@H](Nc1cncc(-c2c[nH]c3ncc(CNC(=O)N4CCCC4)cc23)c1)C(=O)NCC(F)(F)F , assay on JAK2 (Homo sapiens), is < 6.30

====

# reported pIC50; entries follow
- system_under_test: JAK2 (Homo sapiens, UniProt O60674)
- Construct: recombinant purified GST-tagged catalytic domain for each enzyme
- Sequence (O60674 849-1124 limits assumed): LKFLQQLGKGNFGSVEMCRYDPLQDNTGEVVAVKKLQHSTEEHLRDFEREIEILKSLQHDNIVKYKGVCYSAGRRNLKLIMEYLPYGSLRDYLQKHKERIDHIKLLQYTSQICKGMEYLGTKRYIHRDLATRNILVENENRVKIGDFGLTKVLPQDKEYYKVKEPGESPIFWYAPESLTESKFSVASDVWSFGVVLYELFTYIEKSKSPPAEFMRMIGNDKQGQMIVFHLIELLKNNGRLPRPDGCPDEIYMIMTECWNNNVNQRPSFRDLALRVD
- assay_procedure: Jak Biochemical HTRF Assay (JAK2)
- condition_set: recombinant purified GST-tagged catalytic domain, [ATP] 8.5 μM, values given as range classes
- Experimental: Jak Biochemical HTRF Assay Protocol The ability of compounds to inhibit the activity of JAK1, JAK2, JAK3, and Tyk2 was measured using a recombinant purified GST-tagged catalytic domain for each enzyme (Invitrogen JAK1 #M4290, JAK2 #M4290, JAK3 #M4290, Tyk2 #M4290) in an HTRF format biochemical assay. […] Plates were shaken and centrifuged and then incubated 60 minutes at room temperature and then read on a Perkin Elmer Envision (λex=337 nm, λem=665 and 615 nm, TRF delay time=20 μs). […]
pIC50: −log10 of the molar value.

Answered cases to consult:
> print(dat)
                                   compound        result
1  CC(C)[C@H](Nc1cncc(-c2c[nH]c3ncc(OC4CCCC4)cc23)c1)C(=O)NCC(F)(F)F [Example 2-5]  6.30 to 8.00
2  COCc1cnc2[nH]cc(-c3nncc(N[C@@H](C(=O)NCC(F)(F)F)C(C)C)n3)c2c1 [Example 9-8]  6.30 to 8.00
3  CC(C)C(Nc1cncc(-c2c[nH]c3ncc(S(=O)(=O)N(C)C)cc23)c1)C(=O)NCC(F)(F)F (stereo not shown) [Example 4-2]        < 6.30

# next compound below
Reported pIC50 of CC1c2ncc(C(F)(F)F)n2CCN1c1cnnc(-c2c[nH]c3ncc(Cl)cc23)n1 (stereo not shown) [Example 1-4] : 6.30 to 8.00

====

- system_under_test: JAK3 (Homo sapiens, UniProt P52333)
- Construct: recombinant purified GST-tagged catalytic domain for each enzyme
- Sequence (P52333 822-1111 limits assumed): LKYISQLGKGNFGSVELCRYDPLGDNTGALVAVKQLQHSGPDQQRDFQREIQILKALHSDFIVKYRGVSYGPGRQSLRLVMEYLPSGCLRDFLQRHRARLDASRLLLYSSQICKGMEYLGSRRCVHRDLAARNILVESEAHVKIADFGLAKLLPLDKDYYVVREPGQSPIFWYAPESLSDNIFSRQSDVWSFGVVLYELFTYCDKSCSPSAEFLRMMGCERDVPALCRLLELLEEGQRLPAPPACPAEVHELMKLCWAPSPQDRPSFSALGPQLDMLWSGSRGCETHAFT
- assay_procedure: Jak Biochemical HTRF Assay (JAK3)
- condition_set: recombinant purified GST-tagged catalytic domain, [ATP] 2.9 μM, values given as range classes
readout: IC50

Answered cases to consult:
> print(dat)
                                   molecule                    system.under.test  readout   result
1  COCC(=O)Nc1cnc2[nH]cc(-c3cncc(N[C@H](C(=O)NCC(F)(F)F)C(C)C)c3)c2c1 [Example 5-8]  JAK3 (Homo sapiens, UniProt P52333)     IC50  ≤ 10 nM
2  C[C@@H](Nc1cnnc(-c2c[nH]c3ncc(Cl)cc23)c1)C(=O)NCC(F)(F)F [Example 1-24]  JAK3 (Homo sapiens, UniProt P52333)     IC50  ≤ 10 nM

Reported IC50 of CC(C)[C@@H](Nc1cncc(-c2c[nH]c3ncc(COCCN4CCN(C(=O)OC(C)(C)C)CC4)cc23)c1)C(=O)NCC(F)(F)F [Example 9-3] : ≤ 10 nM

Reported IC50 of CC(C)[C@@H](Nc1cncc(-c2c[nH]c3ncc(CN4CCCC4)cc23)c1)C(=O)NCC(F)(F)F [Example 9-7] : 10 to 500 nM

Reported IC50 of CC(C)C(Nc1cncc(-c2c[nH]c3ncc(F)cc23)c1)C(=O)NCC(F)(F)F (stereo not drawn) [Example 1-2] : ≤ 10 nM

Reported IC50 of COc1cnc2[nH]cc(-c3cncc(N[C@H](C)C(=O)NCC(F)(F)F)c3)c2c1 [Example 1-31] : ≤ 10 nM

Reported IC50 of CC(=O)NCc1cnc2[nH]cc(-c3cncc(N[C@H](C(=O)NCC(F)(F)F)C(C)C)c3)c2c1 [Example 10-5] : 10 to 500 nM

Reported IC50 of Clc1cnc2[nH]cc(-c3cncc(N4CCCC4c4nccs4)c3)c2c1 (stereo not drawn) [Example 1-28] : ≤ 10 nM

====

- system_under_test: JAK2 (Homo sapiens, UniProt O60674)
- Construct: recombinant purified GST-tagged catalytic domain for each enzyme
- assay_procedure: Jak Biochemical HTRF Assay (JAK2)
- condition_set: recombinant purified GST-tagged catalytic domain, [ATP] 8.5 μM, values given as range classes
readout: IC50

Answered cases to consult:
> print(dat)
                                   compound          result
1  CC(C)[C@H](Nc1cncc(-c2c[nH]c3ncc(N)cc23)c1)C(=O)NCC(F)(F)F [Example 5-1]  0.01 to 0.5 µM
2  CC(C)[C@H](Nc1cncc(-c2c[nH]c3ncc(OCCN4CCN(C)CC4)cc23)c1)C(=O)NCC(F)(F)F [Example 2-17]  0.01 to 0.5 µM
3  COCCOc1cnc2[nH]cc(-c3cncc(NC(C(=O)NCC(F)(F)F)C(C)C)c3)c2c1 (stereo not drawn) [Example 2-2]  0.01 to 0.5 µM

Reported IC50 of Fc1cnc2[nH]cc(-c3nncc(N4CCCC4c4nccs4)n3)c2c1 (stereo not drawn) [Example 1-11] : 0.01 to 0.5 µM

Reported IC50 of CC(C)[C@@H](Nc1cncc(-c2c[nH]c3ncc(C(=O)NCC4(O)CC4)cc23)c1)C(=O)NCC(F)(F)F [Example 3-14] : ≤ 0.01 µM

Reported IC50 of O=C(NCC(F)(F)F)C(Nc1cncc(-c2c[nH]c3ncc(Cl)cc23)c1)C1CC1 (stereo not drawn) [Example 1-48] : 0.01 to 0.5 µM

Reported IC50 of CC(C)CNC(=O)c1cnc2[nH]cc(-c3cncc(N[C@@H](C(=O)NCC(F)(F)F)C(C)C)c3)c2c1 [Example 3-7] : 0.01 to 0.5 µM

Reported IC50 of CNC(=O)c1cnc2[nH]cc(-c3cncc(N[C@@H](C(=O)NCC(F)(F)F)C(C)C)c3)c2c1 [Example 3-8] : 0.01 to 0.5 µM

Reported IC50 of O=C(NCC(F)(F)F)[C@H]1CCCC[C@H]1Nc1cncc(-c2c[nH]c3ncc(F)cc23)c1 [Example 1-37] : 0.01 to 0.5 µM

Reported IC50 of O=C(NCC(F)(F)F)[C@H]1CCCC[C@H]1Nc1cnnc(-c2c[nH]c3ncc(F)cc23)n1 [Example 1-21] : > 0.5 µM

Reported IC50 of CC(C)[C@@H](Nc1cncc(-c2c[nH]c3ncc(COC4CCN(C(=O)OC(C)(C)C)CC4)cc23)c1)C(=O)NCC(F)(F)F [Example 9-6] : 0.01 to 0.5 µM

Reported IC50 of COc1cnc2[nH]cc(-c3cncc(N[C@@H](C(=O)NCC(F)(F)F)C(C)(C)O)c3)c2c1 [Example 1-50] : 0.01 to 0.5 µM

Value source: patent US9096598B2
